- Tested on: corn (Zea mays)
- ASSAY EXPLANATION: Test G Pre-Emergence Protocol
- Assay type: in vivo
- TEST SETTINGS: Zea mays, pre-emergence, 312 h, 62.5 g ai/ha, evaluated after 13 days, 100=total damage to plant, 0=no damage to plant, read-out: Corn damage rating
Property: plant injury at 62.5 g/ha; scope: individual molecules
Use % as the unit, but write only the number.

Illustrative cases are given below, each with its answer.
MOLECULE: CN1C[C@H](c2ccc(C(F)(F)F)cc2)[C@@H](C(=O)Nc2cccc3c2S(=O)(=O)CC3)C1=O (racemic)
plant injury at 62.5 g/ha [%]: 0

MOLECULE: Cc1nc(F)ccc1NC(=O)[C@@H]1C(=O)N(C)C[C@H]1c1ccc(C(F)(F)F)cc1 (racemic)
plant injury at 62.5 g/ha [%]: 0

Exercise: Return value of plant injury at 62.5 g/ha for input Cc1c(F)cccc1NC(=O)[C@@H]1C(=O)N(C)C[C@H]1c1cc(Cl)c(F)c(Cl)c1 (racemic) , no commentary.
Key: 20

Exercise: Return value of plant injury at 62.5 g/ha for input COCCOc1cccc([C@@H]2CN(C)C(=O)[C@H]2C(=O)Nc2cccc(F)c2C)c1 (racemic) , no commentary.
Key: 0

###

- Test system: pigweed (Amaranthus retroflexus)
- ASSAY EXPLANATION: Test A preemergence
- Type: in vivo
- TEST SETTINGS: Amaranthus retroflexus, pre-emergence, 240 h, Preemergence, 125 g ai/ha; 0 to 100 scale (0 no effect, 100 complete control); read-out: Plant response rating, Pigweed
MEASUREMENT LABEL: pest or weed control at 125 g/ha (%)
Use % as the unit, but write only the number.

Illustrative cases are given below, each with its answer.
MOLECULE: Cc1c(F)ccc([C@H]2CNC(=O)[C@@H]2C(=O)Nc2cccc(F)c2F)c1F [Compound 1327]
UNIT STRING: %
pest or weed control at 125 g/ha: 0
//
MOLECULE: CN1C[C@H](c2ccc(Br)cc2)[C@@H](C(=O)Nc2ccc(F)c(F)c2F)C1=O [Compound 1393]
UNIT STRING: %
pest or weed control at 125 g/ha: 80
//
MOLECULE: CN1C[C@H](c2ccc3c(c2)OC(F)(F)O3)[C@@H](C(=O)Nc2cccnc2F)C1=O [Compound 1346]
UNIT STRING: %
pest or weed control at 125 g/ha: 90

Next molecule, pest or weed control at 125 g/ha to be filled in.
Exercise: Return value of pest or weed control at 125 g/ha for input CN1C[C@H](c2ccc3c(c2)OC(F)(F)O3)[C@@H](C(=O)Nc2cnccc2C(F)(F)F)C1=O [Compound 1354] , no commentary.
Key: 20

###

- Test system: barnyardgrass (Echinochloa crus-galli)
- ASSAY EXPLANATION: Test A preemergence
- Format: in vivo
- TEST SETTINGS: Echinochloa crus-galli, pre-emergence, 240 h, 31 g ai/ha, Preemergence; 0 to 100 scale where 0 is no effect and 100 is complete control; read-out: Barnyardgrass plant response rating
- Excerpt: […]
MEASUREMENT LABEL: pest or weed control at 31 g/ha (%)
Use % as the unit, but write only the number.

TEST SMILES: CN1C[C@H](c2cccc(C(F)(F)F)c2)[C@@H](C(=O)Nc2ccc(F)nc2F)C1=O
TARGET OR TEST SYSTEM: barnyardgrass (Echinochloa crus-galli)
pest or weed control at 31 g/ha / %: 90
--
TEST SMILES: Cc1c(F)cccc1NC(=O)[C@H]1C(=O)N(C)C[C@@H]1c1cc(C(F)F)cs1
TARGET OR TEST SYSTEM: barnyardgrass (Echinochloa crus-galli)
pest or weed control at 31 g/ha / %: 90
--
TEST SMILES: CN1C[C@H](c2ccc3c(c2)C(F)(F)C(F)(F)O3)[C@@H](C(=O)Nc2cccc(F)c2F)C1=O
TARGET OR TEST SYSTEM: barnyardgrass (Echinochloa crus-galli)
pest or weed control at 31 g/ha / %: 90
--
TEST SMILES: Cc1cccc([C@H]2CN(C)C(=O)[C@@H]2C(=O)Nc2cnccc2C)c1
TARGET OR TEST SYSTEM: barnyardgrass (Echinochloa crus-galli)
pest or weed control at 31 g/ha / %: 0
--
TEST SMILES: CSc1ccccc1NC(=O)[C@H]1C(=O)N(C)C[C@@H]1c1ccc(F)c(OC(C)C)c1
TARGET OR TEST SYSTEM: barnyardgrass (Echinochloa crus-galli)
pest or weed control at 31 g/ha / %: 0

Exercise: Return value of pest or weed control at 31 g/ha for input `COc1cccc([C@H]2CN(C)C(=O)[C@@H]2C(=O)Nc2ccc(F)c(F)c2F)c1` , no commentary.
Key: 100

Exercise: Return value of pest or weed control at 31 g/ha for input `O=C1NC[C@H](c2ccc(C(F)(F)F)cn2)[C@H]1C(=O)Nc1ccc(F)c(F)c1F` , no commentary.
Key: 30

Exercise: Return value of pest or weed control at 31 g/ha for input `Cc1ccc([C@H]2CN(C)C(=O)[C@@H]2C(=O)Nc2cccnc2F)cc1` , no commentary.
Key: 100
